These entries and their values trace back to patent US10358436B2.

- Assay System: UniProt:O14965
- Sequence (O14965 whole entry): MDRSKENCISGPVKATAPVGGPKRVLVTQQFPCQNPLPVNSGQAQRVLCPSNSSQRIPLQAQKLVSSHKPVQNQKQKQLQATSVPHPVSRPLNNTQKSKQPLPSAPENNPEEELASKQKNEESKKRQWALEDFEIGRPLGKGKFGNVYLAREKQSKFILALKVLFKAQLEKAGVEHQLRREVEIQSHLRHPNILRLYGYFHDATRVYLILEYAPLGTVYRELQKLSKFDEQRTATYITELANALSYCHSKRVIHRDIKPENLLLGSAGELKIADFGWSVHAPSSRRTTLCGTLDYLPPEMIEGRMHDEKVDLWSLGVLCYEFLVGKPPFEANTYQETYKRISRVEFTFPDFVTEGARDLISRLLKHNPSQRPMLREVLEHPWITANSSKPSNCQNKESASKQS
- Test Details: Aurora A inhibition assay (Z-Lyte)
- Format: biochemical
Where a name gives a salt, the structure may show the parent alone.
Provide the recorded inhibition at 1 µM for the entries that follow.

Task: # inhibition at 1 µM lookup, item COc1ccc2c(c1)[C@]1(C[C@H]1c1ccc3c(-c4ccc(N5CCNCC5)cc4)n[nH]c3c1)C(=O)N2C [Example A101, 2,2,2-trifluoroacetate]
Output: < 50%

Task: I would be grateful if you could share the reported inhibition at 1 µM for CN1CCC(Cc2ccc(/C=C/c3n[nH]c4cc([C@@H]5C[C@@]56C(=O)Nc5ccccc56)ccc34)cc2)CC1 [Example A81, 2,2,2-trifluoroacetate salt] .
Output: > 50%

Task: Which value of inhibition at 1 µM has been reported for O=C1Nc2ccccc2[C@]12C[C@H]2c1ccc2c(/C=C/c3ccc(CN4CCOCC4)c(F)c3)n[nH]c2c1 [Example A200, 2,2,2-trifluoroacetate] in the records?
Output: > 50%

Task: Request the reported inhibition at 1 µM associated with COc1ccc2c(c1)[C@]1(C[C@H]1c1ccc3c(-c4ccc(N5CC[C@@H](N(C)C)C5)cc4)n[nH]c3c1)C(=O)N2 [Example A127, 2,2,2-trifluoroacetate]
Output: > 50%

Task: I'd like to know its inhibition at 1 µM. The compound in question is COc1ccc2c(c1)[C@]1(C[C@H]1c1ccc3c(-c4ccc(N5CCN(C)CC5)cc4)n[nH]c3c1)C(=O)N2 (relative stereo)
Output: < 50%

Task: Which inhibition at 1 µM value belongs to COc1ccc2c(c1)[C@]1(C[C@H]1c1ccc3c(C#Cc4ccc(C=O)cc4)n[nH]c3c1)C(=O)N2 (relative stereo) ?
Output: < 50%
